Test: Binding affinity to Fe(3+) ions assessed as percent parent peaks remaining by electrospray ionization mass spectrometry
Parameters: concentration or dose not given beside the values
Listing of recorded Activity by entry.
Answer in %, number only, no unit symbol.

>>> print(df.to_string())
                              sample_smiles  readout_name  measurement_units  recorded_measurement
0  COc1nc(N2CCN(S(=O)(=O)N(C)C)CC2)nc(OC)c1O      Activity                  %                   100
1          CN(C)S(=O)(=O)N1CCN(c2ncccn2)CC1      Activity                  %                   100
2  COc1nc(N2C(=O)CN(S(=O)(=O)N(C)C)CC2=O)nc(OC)c1O      Activity                  %                   8.2
3       CN(C)S(=O)(=O)N1CCN(c2ncc(O)cn2)CC1      Activity                  %                   100
4  CN(C)S(=O)(=O)N1CC(=O)N(c2ncccn2)C(=O)C1      Activity                  %                    10

Report Activity for COc1cc(OC)nc(N2C(=O)CN(S(=O)(=O)N(C)C)CC2=O)n1 please.
7.6

Which Activity is listed for COc1cc(OC)nc(N2CCN(S(=O)(=O)N(C)C)CC2)n1 ?
100

Param item = CN(C)S(=O)(=O)N1CC(=O)N(c2ncc(O)cn2)C(=O)C1 ; retrieve measured Activity.
8.2

###

Reported values of Activity for individual entries
Assay: Binding affinity to Fe(2+) ions assessed as percent parent peaks remaining by electrospray ionization mass spectrometry
Design: concentration or dose not given beside the values
The figure you give is taken to be in %; do not add the unit.

What value of Activity has been recorded for this entry: CN(C)S(=O)(=O)N1CCN(c2ncc(O)cn2)CC1
100

State the recorded Activity for this entry: COc1nc(N2CCN(S(=O)(=O)N(C)C)CC2)nc(OC)c1O
100

Query: Activity; subject: COc1nc(N2C(=O)CN(S(=O)(=O)N(C)C)CC2=O)nc(OC)c1O
7.5

Activity lookup needed for COc1cc(OC)nc(N2CCN(S(=O)(=O)N(C)C)CC2)n1 , thanks.
100

###

Assay: Binding affinity to Cu(1+) ions assessed as percent parent peaks remaining by electrospray ionization mass spectrometry
Parameters: concentration or dose not given beside the values
readout.name: Activity (%)
Report the figure in % without appending any unit label.

Look up Activity: CN(C)S(=O)(=O)N1CCN(c2ncccn2)CC1
100

Report Activity for COc1nc(N2CCN(S(=O)(=O)N(C)C)CC2)nc(OC)c1O please.
100

Report Activity for CN(C)S(=O)(=O)N1CC(=O)N(c2ncc(O)cn2)C(=O)C1 please.
4.2

Need Activity of COc1cc(OC)nc(N2C(=O)CN(S(=O)(=O)N(C)C)CC2=O)n1 , thanks.
4.1

Fill blank: measured Activity of the compound CN(C)S(=O)(=O)N1CCN(c2ncc(O)cn2)CC1 is ____.
100

Activity lookup needed for CN(C)S(=O)(=O)N1CC(=O)N(c2ncccn2)C(=O)C1 , thanks.
3.6

Quick one: Activity of COc1nc(N2C(=O)CN(S(=O)(=O)N(C)C)CC2=O)nc(OC)c1O ?
4

May I ask what Activity has been recorded for COc1cc(OC)nc(N2CCN(S(=O)(=O)N(C)C)CC2)n1 ?
100

###

Tested on: SRA1
Assay: Cytoprotection in human SRA1 cells assessed as protection against H2O2-induced cell death after 2 hrs by MTS assay
Type: functional, cell-based
Active and inactive are the calls of the source. No cut-off for these calls is given here.
Answer with one of the outcomes active, inactive

Past entries and their recorded results:
>>> df
                                   compound  assigned_label
0          CN(C)S(=O)(=O)N1CCN(c2ncccn2)CC1        inactive
1  CN(C)S(=O)(=O)N1CC(=O)N(c2ncc(O)cn2)C(=O)C1          active
2  COc1cc(OC)nc(N2C(=O)CN(S(=O)(=O)N(C)C)CC2=O)n1        inactive
3  CN(C)S(=O)(=O)N1CC(=O)N(c2ncccn2)C(=O)C1        inactive
4  Cc1c(C)c2c(c(C)c1O)CCC(C)(C(=O)O)O2 (centres undefined)          active

State the result this test recorded for COc1cc(OC)nc(N2CCN(S(=O)(=O)N(C)C)CC2)n1 .
inactive

###

Listing of recorded Activity by entry.
Experiment: Binding affinity to Cu(2+) ions assessed as percent parent peaks remaining by electrospray ionization mass spectrometry
Parameters: concentration or dose not given beside the values

A selection of reference data follows.
>>> print(df.to_string())
                              sample_smiles  recorded_measurement
0  CN(C)S(=O)(=O)N1CC(=O)N(c2ncc(O)cn2)C(=O)C1                    3%
1          CN(C)S(=O)(=O)N1CCN(c2ncccn2)CC1                  100%

Data request, read-out Activity, for COc1cc(OC)nc(N2CCN(S(=O)(=O)N(C)C)CC2)n1
100%

Query (compound): COc1nc(N2C(=O)CN(S(=O)(=O)N(C)C)CC2=O)nc(OC)c1O ; field requested: Activity
3.6%

I have this compound here, CN(C)S(=O)(=O)N1CCN(c2ncc(O)cn2)CC1 , and I need its recorded Activity.
100%

Return reported Activity; argument: COc1nc(N2CCN(S(=O)(=O)N(C)C)CC2)nc(OC)c1O
100%

What does the record list as Activity for CN(C)S(=O)(=O)N1CC(=O)N(c2ncccn2)C(=O)C1 ?
4.4%

Any idea what Activity was measured for COc1cc(OC)nc(N2C(=O)CN(S(=O)(=O)N(C)C)CC2=O)n1 ?
3.4%

###

Below, each of the compounds is paired with its reported Activity value.
Assay: Binding affinity to Zn(2+) ions assessed as percent parent peaks remaining by electrospray ionization mass spectrometry
Parameters: concentration or dose not given beside the values
Just the number in %, nothing appended.

// worked examples, Activity included
>>> print(df.to_string())
                              sample_smiles  measurement_units  recorded_measurement
0  COc1nc(N2C(=O)CN(S(=O)(=O)N(C)C)CC2=O)nc(OC)c1O                  %                  14.6
1  COc1cc(OC)nc(N2C(=O)CN(S(=O)(=O)N(C)C)CC2=O)n1                  %                  13.8
2       CN(C)S(=O)(=O)N1CCN(c2ncc(O)cn2)CC1                  %                   100
3  CN(C)S(=O)(=O)N1CC(=O)N(c2ncccn2)C(=O)C1                  %                  15.3
4  COc1nc(N2CCN(S(=O)(=O)N(C)C)CC2)nc(OC)c1O                  %                   100

So what's the measured Activity for this one? COc1cc(OC)nc(N2CCN(S(=O)(=O)N(C)C)CC2)n1
100

// query Activity value for entry CN(C)S(=O)(=O)N1CCN(c2ncccn2)CC1
100

Reported Activity for CN(C)S(=O)(=O)N1CC(=O)N(c2ncc(O)cn2)C(=O)C1 : what is it?
12.7

###

Test: Binding affinity to Fe(2+) ions assessed as percent parent peaks remaining by electrospray ionization mass spectrometry
Parameters: concentration or dose not given beside the values
readout.name: Activity (%)
Numeric only. Scale: %

Find the recorded Activity belonging to CN(C)S(=O)(=O)N1CCN(c2ncccn2)CC1 and report it.
100

Look at this compound and give its reported Activity. CN(C)S(=O)(=O)N1CC(=O)N(c2ncccn2)C(=O)C1
8.1

Name the recorded Activity for CN(C)S(=O)(=O)N1CC(=O)N(c2ncc(O)cn2)C(=O)C1 .
6.9

# input compound: COc1cc(OC)nc(N2C(=O)CN(S(=O)(=O)N(C)C)CC2=O)n1 ; wanted: its Activity
7.3

###

System: SRA1
Test: Cytoprotection in human SRA1 cells assessed as protection against H2O2-induced cell death after 2 hrs by MTS assay
Assay type: functional, cell-based
The source made the active and inactive calls. The rule behind the calls is not given here.
readout.name: Activity

>>> df
                              sample_smiles  target  readout_name  recorded_measurement
0       CN(C)S(=O)(=O)N1CCN(c2ncc(O)cn2)CC1    SRA1      Activity                Active
1  COc1nc(N2CCN(S(=O)(=O)N(C)C)CC2)nc(OC)c1O    SRA1      Activity                Active
2  COc1nc(N2C(=O)CN(S(=O)(=O)N(C)C)CC2=O)nc(OC)c1O    SRA1      Activity                Active
